Tested on: MS2 coat protein
Assay: apparent KD of MS2 coat protein; designed switch direction (-1 OFF switch, 1 ON switch): -1; higher = weaker reporter binding
Details: Eterna round: R95; input ligand: none
observedProperty: apparent KD of MS2 coat protein
// unit must come after the numeric part

AGUAACUAUCACGAAAGUGAUAGUUACACAAGCAGUGAAACAUGAGGAUCACCCAUGUCCUCAUAUGCUCGUCUUAU [Sensor 3 - 30] (puzzle: Sensor v3, turn-off variant 2): 114 nM
UUUUUCAUCUAUGGGAGUGACAUGAGGAUCACCCAUGUGUGUCUUGUUUUUUGUUCGUCUAAGACUUUCUGAUCAGU [JR_SV3TOV1_Sub032] (puzzle: Sensor v3, turn-off variant 1): 160 nM
GGUUGACAUGAGGAUCACCCAUGUGAGGAUAUGCGAGAGAAAAAAGUGAGGAAGUUAAGCAGAAGGCGCUGUCG [salish99-ex1_r3_005] (puzzle: Exclusion 1): 307 nM
UAGAAGGUAGGAUAUACGAAUAAAUAGGGUAGUAAGAAGACACAUGAGGAUCACCCAUGUAGAAGGACCAAGAU [Mat - Exclusion 2 - Mod of my Tesla design - D33] (puzzle: Exclusion 2): 20.6 nM
UAAAAGCGAGGAUAUACAUGAGGAUCACCCAUGUGAGGCGAAAAGCCUCGGGCCAUCAGUAGAAGGUGCAAAAC [Arcecela] (puzzle: Exclusion 3): 112 nM

### Prompt Read the entry AAUGGGUGUGUGAGGAUAUACGAAGGCAAUUGCCAGUAGAAGGUACAUGAGGAUCACCCAUGUGUCCAAAAGAG [Tititemaon] (puzzle: Brourd's mod of Exclusion 4) and write its reported apparent KD of MS2 coat protein.
### Response 13.2 nM

### Prompt Read the entry UAUAAUUUUUUUUUUUUACAAGCUUUUUGCUCGUCUUAUACAUGAGGAUCACCCAUGUGGGUGAAAGAUAGAUUGUC [JMF's solution 2] (puzzle: Sensor v3, turn-off variant 2) and write its reported apparent KD of MS2 coat protein.
### Response 41.2 nM

### Prompt Read the entry CGUGACUCAGGAUAUCUAUAAUAUCACAUGAGGAUCACCCAUGUCCAGCGAAAGCUGGAGAGAGAAGGGAGUCACG [Fiskers Ex 5 - 36] (puzzle: Exclusion 5) and write its reported apparent KD of MS2 coat protein.
### Response 61.5 nM

---

System: MS2 coat protein
Test: apparent KD of MS2 coat protein; designed switch direction (-1 OFF switch, 1 ON switch): -1; higher = weaker reporter binding
Conditions: input ligand: none
observedProperty: apparent KD of MS2 coat protein (µM)
The figure you give is taken to be in µM; do not add the unit.

Some sequences with recorded apparent KD of MS2 coat protein:
GGUGUGCUAGGAUAUGCUUUGGGCUCGCUUUCCUUCGUUUUACUUGAGGAUCACCCAAGUAGAAGGAGCUUGCC [salish99_ex2_r4_037] (Eterna round: R97, puzzle: Exclusion 2): 0.0116
ACAUGAGGAUCACCCAUGUAAUCAUGAUGGCUGAUGUAGAGCUAGGAUAUGAGUGGCUUUCUAUCUCAGAAGGAGCUAGACUGG [Deportation 41 - Jieux - Exclusion NG 3] (Eterna round: R96, puzzle: Exclusion NG 3): 0.0349
UUCCGGUGAGGAUAUUGCACGGUGGGAGAGAGCGCCACUGUCAAGAAGGUACAUGAGGAUCACCCAUGUGAGUA [Eternabot (L1) Solution 24] (Eterna round: R97, puzzle: Exclusion 4): 0.0251
CUUGUGUCAGGAUAUGCUAAGUAUUCGUUUUACGCGUCUAGGCAGAAGGGACAUGAGGAUCACCCAUGUAACGC [EX4 B.30] (Eterna round: R97, puzzle: Exclusion 4): 0.133
GCACGGAGUGUAGGAUAUCUGUGCGAUUAGCUCAGAGAAGGACACAUGAGGAUCACCCAUGUGUACCUCAACAUUAAUCCGUGC [Eli exng1 - 075] (Eterna round: R96, puzzle: Exclusion NG 1): 0.0101
CAUUAUUAUCGAGGAUAUCGUAUUGAGAUACUAUGAGAAGGCGGGAUAAACAUGAGGAUCACCCAUGUGAGCCUGAUGCUUGUG [Ex NG1 #37] (Eterna round: R96, puzzle: Exclusion NG 1): 0.0193
CACGGACGAUAAGGAUAUGUUAUAGCUCAAACAGCAGAAGGUGUUAAACCACCGUCACAUGAGGAUCACCCAUGUGUGACAGUU [Eternabot solution 34] (Eterna round: R96, puzzle: Exclusion NG 1): 0.0403
CAGGAUAGAGGAUAUACAUAGAUACAGAUUCAUGUGAUCCUACAUGAGGAUCACCCAUGUAGAAGGCUAUCCUG [Fiskers Ex 2 - 21] (Eterna round: R96, puzzle: Exclusion 2): 0.348

### Prompt Retrieve apparent KD of MS2 coat protein on MS2 coat protein; query CCGGCUGCUGUGAGGAUAUGCCCGCGCGCCCGCGGGCAGAAGGCACAUGAGGAUCACCCAUGUCCUGCGGUCCC [salish99_bmx4_r4_120] (Eterna round: R97, puzzle: Brourd's mod of Exclusion 4)
### Response 0.0241
